Could you please report measured Emax for the items listed next?
system_tested: α1A-ARs (Homo sapiens, UniProt P35348)
Sequence (P35348 1-466): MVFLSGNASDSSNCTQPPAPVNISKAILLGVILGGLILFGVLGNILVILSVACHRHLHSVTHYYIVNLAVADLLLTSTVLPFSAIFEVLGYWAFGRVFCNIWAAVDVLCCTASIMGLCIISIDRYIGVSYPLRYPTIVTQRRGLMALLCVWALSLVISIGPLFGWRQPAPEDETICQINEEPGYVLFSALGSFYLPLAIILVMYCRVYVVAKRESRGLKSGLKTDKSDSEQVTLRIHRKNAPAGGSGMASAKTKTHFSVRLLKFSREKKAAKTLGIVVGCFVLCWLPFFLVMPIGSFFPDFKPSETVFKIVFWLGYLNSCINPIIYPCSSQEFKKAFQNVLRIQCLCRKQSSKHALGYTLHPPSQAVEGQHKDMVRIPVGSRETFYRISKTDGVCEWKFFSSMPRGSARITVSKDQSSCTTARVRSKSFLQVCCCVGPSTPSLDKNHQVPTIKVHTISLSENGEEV
run_description: Calcium flux assay (Calcium 6 dye) in cells expressing an α1-AR
Assay type: cell-based
experimental_parameters: α1A-AR calcium flux; relative to full agonist epinephrine; mean of at least three experiments; read-out: Average Emax (% epi)

Clc1cn(-c2cn[nH]c2)c2cc(CC3=NCCN3)ccc12 [Compound 4] :: < 20%

Hi! Can you tell me Emax for each of these compounds?
1. FC(F)(F)c1cccc2c(N3CCCC3)nn(CC3=NCCN3)c12 [Compound 71]
2. CC(F)(F)c1cccc2c(N3CCCC3)nn(CC3=NCCN3)c12 [Compound 74]

Result:
< 20%
21 to 60%

Report Emax for every entry below.
1. Cc1cc(F)cc2c(N3CCCC3)nn(CC3=NCCN3)c12 [Compound 77]
2. Clc1nn(CC2=NCCN2)c2c(-n3cccn3)cccc12 [Compound 36]

Result:
21 to 60%
21 to 60%

Query: Notebook entry, α1A-ARs (Homo sapiens, UniProt P35348) assay: Emax of Clc1cccc2c(-c3ccccn3)nn(CC3=NCCN3)c12 [Compound 51] = ?
Result: 21 to 60%
